- Test system: foxtail, giant
- RUN_DESCRIPTION: Test C preemergence
- Assay type: in vivo, Setaria faberii
- MEASUREMENT_CONDITIONS: Preemergence, 250 g ai/ha
ASSAY_ENDPOINT: Plant response rating (scale of 0 to 100), Foxtail, Giant

# COMPOUND, QUANTITATIVE_READOUT
rows = [
    ("CCc1cc(C(=O)NCC(F)(F)F)nn1Cc1nc(C(F)(F)F)nn1C [Compound 107]", 100),
    ("CCOc1cc(C(=O)NCC(F)(F)F)nn1Cc1ccnc(OC(F)F)c1 [Compound 128]", 100),
    ("CCc1cc(C(=O)NOC(C)C)nn1Cc1cccc(OC(F)(F)F)c1 [Compound 70]", 98),
    ("CCCc1cc(C(=O)NCC(F)(F)F)nn1Cc1ccnc(OC(F)F)c1 [Compound 127]", 98),
]
